test-summary: basal HepG2 mitochondrial membrane potential changes, profiling panel, cell-based, JC-1 fluorescence, 24 h, 100 nL compound (AID 1167); also: test concentration not given here
study-conditions: higher = more signal
reported-endpoint: z-score
Form field (numeric): enter value without unit.

Record request: z-score value, item O=C1O[C@@H](c2ccccc2)[C@@H](c2ccccc2)N2[C@@H](c3ccc(O)cc3)[C@]3(C(=O)Nc4ccc(C#CC5(O)CCCCCC5)cc43)[C@@H](C(=O)Nc3nc4ccccc4s3)[C@H]12
-2.15

Please report the recorded z-score for CCCC[C@H]1OB(O)C[C@H]2C1=C(COC)C[C@H]1C(=O)N(Cc3ccccc3)C(=O)[C@H]12 .
0.987

Which z-score value belongs to COCCOC(=O)N1C(=O)[C@@]2(c3cc(C#CC4(O)CCCCCC4)ccc31)[C@H](C(=O)N1CCCCCCC1)[C@H]1C(=O)O[C@H](c3ccccc3)[C@H](c3ccccc3)N1[C@@H]2c1ccc(O)cc1 ?
-0.355

* * *

measurement-target: Left-right determination factor 2 (Homo sapiens)
test-summary: LEFTY2 binders on small-molecule microarrays, primary screen, biochemical, small-molecule microarray, 635 nm fluorescence scan (AID 1110)
study-conditions: LEFTY2 binding, higher = more signal
reported-endpoint: composite z-score
Give the figure by itself; no unit, no explanation.

API: value(readout= composite z-score, system= Left-right determination factor 2 (Homo sapiens), query= C=CC[C@]1(C(=O)NCC(O)CO)N=C(c2ccc(OCCCO)cc2)O[C@H]1c1ccccc1 (stereo not given in full) )
-0.418

Lookup: composite z-score / Left-right determination factor 2 (Homo sapiens) / C[N+](C)(C)CCCCNC(=O)[C@@H]1C[C@@H]2C(=O)N3CCC[C@H]3C(=O)N2[C@@H]1c1cccc(OCCO)c1
1.14

Give the reported composite z-score for COCCOC(=O)N1C(=O)[C@@]2(c3cc(C#CCCO)ccc31)[C@H](c1ccc(O)cc1)N1[C@H](c3ccccc3)[C@H](c3ccccc3)OC(=O)[C@H]1[C@@H]2C(=O)Nc1nc2ccccc2s1 (system: Left-right determination factor 2 (Homo sapiens)).
0.704

Hello, I am looking for reported composite z-score with Left-right determination factor 2 (Homo sapiens) for O=C(NCc1ccccc1)c1ccc(Br)cc1[N+](=O)[O-] . Could you help?
0.61

Can you look up composite z-score on Left-right determination factor 2 (Homo sapiens) for C=CCOC(=O)[C@@H]1[C@H]2C(=O)O[C@H](c3ccccc3)[C@H](c3ccccc3)N2[C@H](c2ccc(OCCOC(=O)[C@H]3C[C@H]4C(=O)N5CCC[C@H]5C(=O)N4[C@H]3c3ccc(O)cc3)cc2)[C@@]12C(=O)Nc1ccccc12 ?
0.382

API: value(readout=composite z-score, system=Left-right determination factor 2 (Homo sapiens)) for record O=C(NCC(O)CO)[C@]1(Cc2ccccc2)N=C(c2ccc(OCCCO)cc2)O[C@@H]1c1ccccc1 (stereo not given in full)
-1.48

Requested read-out composite z-score, target or system Left-right determination factor 2 (Homo sapiens), entry C=CC[C@@]1(C(=O)N2CCOCC2)N=C(c2ccc(OCCCO)cc2)O[C@@H]1c1ccccc1
-0.464

API: value(readout= composite z-score, system= Left-right determination factor 2 (Homo sapiens), query= C=CCN1C(=O)[C@@]2(Cc3ccccc3)N=C(c3ccc(OCCCO)cc3)O[C@H]2c2ccccc21 )
0.525

Record lookup: for Left-right determination factor 2 (Homo sapiens), what composite z-score belongs to COC(=O)[C@@]1(Cc2ccccc2)[C@H]2c3cc(C(=O)N4CCCC4)n(CCN4CNCC4=O)c3C[C@H]2CN1C(=O)c1ccccc1 ?
0.172

What reported composite z-score corresponds to Cc1ccc(N2C(=O)c3ccccc3[C@@H](C(=O)NCc3ccccc3)[C@@H]2c2ccc(CO)cc2)nc1 on Left-right determination factor 2 (Homo sapiens)?
-0.292

Find composite z-score (Left-right determination factor 2 (Homo sapiens)) for the entry C=C(C)[C@@H]1CC=C(C(O)C2C=CC3C(=O)NC(=O)C3N2Nc2ccccn2)CC1 (stereo not given in full)
1.57

Please state recorded composite z-score (tested on Left-right determination factor 2 (Homo sapiens)) of O=C1OCCC/C=C\[C@H]2OC34C=CCN(CCN5CCOCC5)C(=O)[C@H]3N(CCCCCO)C(=O)[C@@H]4C12 (stereo not given in full)
-1.37

Lab request: please report composite z-score under test system Left-right determination factor 2 (Homo sapiens) for O=C1c2ccccc2[C@@]2(Cc3ccccc3N(CC(F)(F)F)C2=O)[C@H](c2ccc(CO)cc2)N1C1CCCCC1
0.542

Which composite z-score is reported with Left-right determination factor 2 (Homo sapiens) for this entry: C[C@@H]1NC(=O)CC=C[C@@H](C)[C@@H]2C=C[C@H](O)[C@@H](COC(=O)[C@H](C)NC(=O)CC=C[C@@H](C)[C@@H]3C=C[C@H](O)[C@@H](COC1=O)O3)O2 ?
0.0183

So what composite z-score did C=CC(=O)O[C@@H](Cc1ccccc1)[C@H]1C2C=CCCC=C2CN1Cc1cccc(Cl)c1 (stereo not given in full) get with Left-right determination factor 2 (Homo sapiens)?
-0.195

* * *

test-summary: HepG2 cell viability effects, profiling panel, calcein-AM fluorescence, 48 h, basal (AID 1164); also: test concentration not given here
study-conditions: higher = more signal
Rule: true for z-score not less than -0.8, false for anything less.

I'd appreciate it if you could say whether CCCNC(=O)[C@@H]1c2ccccc2C(=O)N(C2CCCCC2)[C@H]1c1ccc(CO)cc1 has z-score at least equal to -0.8.
true

Does O=C(NCC(O)CO)[C@]1(Cc2ccccc2)N=C(c2ccc(OCCCO)cc2)O[C@@H]1c1ccccc1 (stereo partly drawn) have a reported z-score of at least -0.8?
false

Confirm if z-score reported for the compound CC(C)N1CC=CC23O[C@@H]4/C=C\CCCOC(=O)C4[C@H]2C(=O)N(CCO)[C@@H]3C1=O (stereo partly drawn) is -0.8 or above.
true

Quick check: does CO[C@H]1COC(=O)[C@@H](Cc2ccccc2)NC(=O)[C@@H](C)COC(=O)CC=C[C@@H]1C have z-score greater than or equal to -0.8?
true

Is z-score for CC(c1ccccc1)C(O)C1C=CC2C(=O)N(C)C(=O)C2N1N(c1ccccc1)c1ccccc1 (stereo not drawn) at or above -0.8?
true

Dear colleague, could you confirm whether CO[C@H]1O[C@H](CO)[C@@H](OC(=O)CCc2ccccc2)[C@@H]2OC(=O)[C@H](Cc3cccc(Br)c3)C/C=C/C[C@@H](Cc3cccc(Br)c3)C(=O)O[C@@H]12 has z-score at or above -0.8?
true

Check the entry NC(=O)NCC#Cc1ccc2c(c1)[C@]1(C(=O)N2)[C@H](C(N)=O)[C@H]2C(=O)O[C@H](c3ccccc3)[C@H](c3ccccc3)N2[C@@H]1c1ccccc1OCCO : does z-score equal or exceed -0.8?
false

z-score >= -0.8 for CC(C)CN1C(=O)[C@@]2(Cc3ccccc31)c1ccccc1C(=O)N(C1CCCCC1)[C@H]2c1ccc(CO)cc1 ?
true

Textbook exercise: given the entry CN(C)CCCC[C@@H]1NC(=O)[C@@H]2C[C@H](C(=O)NCCCCCNC(=O)CS)[C@H](c3ccc(O)cc3)N2C1=O , state whether its z-score is greater than or equal to -0.8.
false

Hi team, for O=C(NCc1ccccc1)[C@@]1(Cc2ccccc2)COC(c2ccc(OCCCO)cc2)=N1 , is the recorded z-score at or above -0.8?
false

Does the reported z-score for CCc1cccc(NC(=O)O[C@H]2[C@H](OC(=O)Nc3ccccc3)[C@@H](OC(=O)Nc3ccccc3)[C@@H](OC)O[C@@H]2CO)c1 fall at or above the -0.8 mark?
false

Does z-score meet or surpass -0.8 for [N-]=[N+]=NCc1ccccc1C[C@]1(C(N)=O)N=C(c2ccc(OCCCO)cc2)O[C@H]1c1ccccc1CN=[N+]=[N-] ?
false

Does z-score meet or surpass -0.8 for CCCCO[C@H]1C[C@H]2C(Br)=C[C@@]1(CO)C(=O)[C@]21CO1 ?
true

# bool: z-score of COC(=O)C[C@H]1O[C@]2(C(=O)N(C)c3ccccc32)[C@@H](C)[C@@H]1[Si](C)(C)c1ccc(OC)cc1 >= -0.8
true

# bool: z-score of COc1ccc(C(=O)Nc2ccc(CN3C(=O)[C@]4(O[C@H](CCn5cc(CCO)nn5)[C@@H]([Si](C)(C)c5ccc(OC)cc5)[C@@H]4C)c4ccccc43)cc2)cc1 >= -0.8
false

Assess whether reported z-score for CC(C)C[C@@H]1NC(=O)[C@H](CC(C)C)NC(=O)[C@@]23C(=O)N[C@@H](Cc4ccccc4)C2[C@H](C)[C@@]2(C)O[C@H]2C3/C=C/CC/C=C/CNC1=O (stereo partly drawn) sits at -0.8 or higher.
true

Determine whether this compound has z-score no lower than -0.8: COCCOC(=O)N1C(=O)[C@@]2(c3cc(C#CCCO)ccc31)[C@H](c1ccc(O)cc1)N1[C@H](c3ccccc3)[C@H](c3ccccc3)OC(=O)[C@H]1[C@@H]2C(=O)Nc1nc2ccccc2s1
true

Is z-score at least -0.8? Consider C[C@]1(C(=O)NCCN2CCOCC2)c2ccccc2C(=O)N(Cc2ccccc2)[C@H]1c1ccc(CO)cc1
true

// inclusive: z-score at least -0.8? input: CC(=O)Nc1ccc([C@H]2[C@H](C)CC[C@H]3C(=O)N4[C@@H](CC[C@@H](C)[C@@H]4c4ccc(NC(C)=O)cc4)C(=O)N32)cc1
true

Record COCCOC(=O)N1C(=O)[C@@]2(c3cc(C#CCCO)ccc31)[C@H](C(=O)N1CCCCCCC1)[C@H]1C(=O)O[C@H](c3ccccc3)[C@H](c3ccccc3)N1[C@@H]2c1ccc(O)cc1 ; criterion: z-score no lower than -0.8. Met?
true

Check if z-score >= -0.8 (inclusive). Item: C=CCC(OC(C)=O)[C@@H]1[C@@H](N(Cc2cc3ccccc3o2)C(=O)c2ccc(C)cc2)c2cc(OCCCO)ccc2N1C(=O)c1ccc2ccccc2n1 (stereo partly drawn)
true

Decide: z-score of COCCOC(=O)N1C(=O)[C@@]2(c3cc(C#CCNC(N)=O)ccc31)[C@H](c1ccc(OCCO)cc1)N1[C@H](c3ccccc3)[C@H](c3ccccc3)OC(=O)[C@H]1[C@@H]2C(=O)N1CCCCCCC1 >= -0.8?
true

Reported z-score at or above -0.8? NC(=O)[C@H]1[C@@H]2C(=O)O[C@@H](c3ccccc3)[C@@H](c3ccccc3)N2[C@@H](c2ccc(O)cc2)[C@]12C(=O)Nc1ccc(C#CCCO)cc12
true

Hi, just wondering whether Cc1ccc([C@@H]2CC=C(C(=O)O)[C@H](c3ccccc3)N2S(=O)(=O)c2ccc(C)cc2)cc1 shows z-score of -0.8 or higher.
false

// inclusive: z-score at least -0.8? input: COC(=O)C1=C(C)N(Cc2ccccc2)c2c(C(=O)OC)c(C(=O)OC)c(C(=O)OC)c(=O)n2[C@@H]1c1ccccc1
true

Confirm if z-score reported for the compound [N-]=[N+]=NCc1ccccc1C[C@]1(C(=O)N2CCCCC2)N=C(c2ccc(OCCCO)cc2)O[C@H]1c1ccccc1CN=[N+]=[N-] is -0.8 or above.
true

Does z-score meet or surpass -0.8 for O=C(CS)NCCCCCCNC(=O)[C@@H]1C[C@@H]2C(=O)N[C@@H](Cc3ccccc3)C(=O)N2[C@@H]1c1ccc(O)cc1 ?
false

Quick check: does CN(C)CCCC[C@@H]1NC(=O)[C@@H]2C[C@H](C(=O)O)[C@H](c3ccc(O)cc3)N2C1=O have z-score greater than or equal to -0.8?
false
